- Target Entity: P-cadherin, endogenous, on HCC70 human triple negative breast cancer cells (human, UniProt P22223 108-829)
- Sequence (P22223 108-829): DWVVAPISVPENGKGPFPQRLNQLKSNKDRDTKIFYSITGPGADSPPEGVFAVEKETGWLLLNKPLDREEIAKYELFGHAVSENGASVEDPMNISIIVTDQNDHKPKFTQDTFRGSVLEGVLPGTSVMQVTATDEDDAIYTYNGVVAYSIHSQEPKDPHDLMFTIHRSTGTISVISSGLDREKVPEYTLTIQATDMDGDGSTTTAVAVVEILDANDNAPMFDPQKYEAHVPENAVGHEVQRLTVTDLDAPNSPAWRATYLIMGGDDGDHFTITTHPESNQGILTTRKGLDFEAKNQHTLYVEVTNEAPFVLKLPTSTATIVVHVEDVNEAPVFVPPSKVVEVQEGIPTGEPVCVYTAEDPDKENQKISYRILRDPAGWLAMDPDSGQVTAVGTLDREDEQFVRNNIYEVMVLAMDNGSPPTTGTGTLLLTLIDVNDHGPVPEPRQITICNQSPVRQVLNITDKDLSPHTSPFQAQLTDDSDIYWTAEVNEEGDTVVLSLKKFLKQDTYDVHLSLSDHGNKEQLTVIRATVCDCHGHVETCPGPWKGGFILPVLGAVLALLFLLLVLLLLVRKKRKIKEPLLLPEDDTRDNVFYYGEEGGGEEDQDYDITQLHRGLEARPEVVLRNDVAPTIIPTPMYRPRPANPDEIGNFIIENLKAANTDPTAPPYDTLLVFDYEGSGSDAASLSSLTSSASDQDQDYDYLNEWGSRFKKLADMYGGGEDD
- Experiment Description: cell-based or functional assay
Overview of recorded Amax, inhibition of cell proliferation and survival (CellTiter-Glo, 5 days), HCC70 cells for various binders
Measured Metric: Amax, inhibition of cell proliferation and survival (CellTiter-Glo, 5 days), HCC70 cells

>>> measured_number("PCAD-mab2-L7-P2 (antibody, V domains shown, linker-drug L7-P2 (structure and conjugation not described in the filing)) VH: QVQLQQSGPGLVKPSQTLSLTCAISGDSVSSQSAAWNWIRQSPSRGLEWLGRIYYRSKWYNDYALSVKSRITINPDTSKNQFSLQLNSVTPEDTAVYYCARGEGYGREGFAIWGQGTLVTVSS VL: DIQMTQSPSSLSASVGDRVTITCRASQTISNTLAWYQQKPGKAPKLLIYAASNLQSGVPSRFSGSGSGTDFTLTISSLQPEDFATYYCQQYLSWFTFGQGTKVEIK")
171
>>> measured_number("P-Cad mab2-L2-P1 (antibody, V domains shown, maleimide linker-drug L2-P1 on engineered Cys residues of the constant regions (positions not stated), DAR 3.9) VH: QVQLQQSGPGLVKPSQTLSLTCAISGDSVSSQSAAWNWIRQSPSRGLEWLGRIYYRSKWYNDYALSVKSRITINPDTSKNQFSLQLNSVTPEDTAVYYCARGEGYGREGFAIWGQGTLVTVSS VL: DIQMTQSPSSLSASVGDRVTITCRASQTISNTLAWYQQKPGKAPKLLIYAASNLQSGVPSRFSGSGSGTDFTLTISSLQPEDFATYYCQQYLSWFTFGQGTKVEIK")
51
>>> measured_number("P-Cad mab2-L3-P1 (antibody, V domains shown, maleimide linker-drug L3-P1 on engineered Cys residues of the constant regions (positions not stated), DAR 4.0) VH: QVQLQQSGPGLVKPSQTLSLTCAISGDSVSSQSAAWNWIRQSPSRGLEWLGRIYYRSKWYNDYALSVKSRITINPDTSKNQFSLQLNSVTPEDTAVYYCARGEGYGREGFAIWGQGTLVTVSS VL: DIQMTQSPSSLSASVGDRVTITCRASQTISNTLAWYQQKPGKAPKLLIYAASNLQSGVPSRFSGSGSGTDFTLTISSLQPEDFATYYCQQYLSWFTFGQGTKVEIK")
105
>>> measured_number("P-Cad mab2-L4-P1 (antibody, V domains shown, maleimide linker-drug L4-P1 on engineered Cys residues of the constant regions (positions not stated), DAR 3.9) VH: QVQLQQSGPGLVKPSQTLSLTCAISGDSVSSQSAAWNWIRQSPSRGLEWLGRIYYRSKWYNDYALSVKSRITINPDTSKNQFSLQLNSVTPEDTAVYYCARGEGYGREGFAIWGQGTLVTVSS VL: DIQMTQSPSSLSASVGDRVTITCRASQTISNTLAWYQQKPGKAPKLLIYAASNLQSGVPSRFSGSGSGTDFTLTISSLQPEDFATYYCQQYLSWFTFGQGTKVEIK")
57.2
>>> measured_number("P-Cad mab2-L5-P1 (antibody, V domains shown, maleimide linker-drug L5-P1 on engineered Cys residues of the constant regions (positions not stated), DAR 3.7) VH: QVQLQQSGPGLVKPSQTLSLTCAISGDSVSSQSAAWNWIRQSPSRGLEWLGRIYYRSKWYNDYALSVKSRITINPDTSKNQFSLQLNSVTPEDTAVYYCARGEGYGREGFAIWGQGTLVTVSS VL: DIQMTQSPSSLSASVGDRVTITCRASQTISNTLAWYQQKPGKAPKLLIYAASNLQSGVPSRFSGSGSGTDFTLTISSLQPEDFATYYCQQYLSWFTFGQGTKVEIK")
65.9
>>> measured_number("P-Cad mab2-L6-P1 (antibody, V domains shown, maleimide linker-drug L6-P1 on engineered Cys residues of the constant regions (positions not stated), DAR 3.8) VH: QVQLQQSGPGLVKPSQTLSLTCAISGDSVSSQSAAWNWIRQSPSRGLEWLGRIYYRSKWYNDYALSVKSRITINPDTSKNQFSLQLNSVTPEDTAVYYCARGEGYGREGFAIWGQGTLVTVSS VL: DIQMTQSPSSLSASVGDRVTITCRASQTISNTLAWYQQKPGKAPKLLIYAASNLQSGVPSRFSGSGSGTDFTLTISSLQPEDFATYYCQQYLSWFTFGQGTKVEIK")
80.2
>>> measured_number("P-Cad mab2-L1-P1 (antibody, V domains shown, maleimide linker-drug L1-P1 on engineered Cys residues of the constant regions (positions not stated), DAR 3.8) VH: QVQLQQSGPGLVKPSQTLSLTCAISGDSVSSQSAAWNWIRQSPSRGLEWLGRIYYRSKWYNDYALSVKSRITINPDTSKNQFSLQLNSVTPEDTAVYYCARGEGYGREGFAIWGQGTLVTVSS VL: DIQMTQSPSSLSASVGDRVTITCRASQTISNTLAWYQQKPGKAPKLLIYAASNLQSGVPSRFSGSGSGTDFTLTISSLQPEDFATYYCQQYLSWFTFGQGTKVEIK")
65.1

Data provenance is patent US20230091510A1.
